src = patent US12084472B2

What EC50 was measured for each of the following?
assay system: human TGR5 (Homo sapiens, UniProt Q8TDU6)
Construct: expressed in transfected cells; host or cells: HEK293
Sequence (Q8TDU6 1-330): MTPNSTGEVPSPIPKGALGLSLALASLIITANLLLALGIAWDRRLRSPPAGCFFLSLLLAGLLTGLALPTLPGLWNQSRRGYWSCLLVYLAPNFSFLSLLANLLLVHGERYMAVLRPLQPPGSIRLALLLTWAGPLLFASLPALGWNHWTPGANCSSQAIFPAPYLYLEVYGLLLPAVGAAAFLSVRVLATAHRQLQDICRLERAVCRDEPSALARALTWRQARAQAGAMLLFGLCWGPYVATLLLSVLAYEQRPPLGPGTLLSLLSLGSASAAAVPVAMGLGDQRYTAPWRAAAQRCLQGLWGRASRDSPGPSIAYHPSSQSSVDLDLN
method summary: Cell-based TGR5 assay (cAMP generation, HTRF)
condition summary: HEK293 cells stably transfected with human TGR5; cAMP by HTRF; 30 minutes at 37° C.; read-out: pEC50 Human TGR5 (converted)

Problem: Item under review: Cc1ccc(SCCCC(=O)NC[C@H](O)[C@@H](O)[C@H](O)[C@H](O)CO)cc1COC1(c2cnccc2-c2ccccc2OC2CC2)CC1 [Compound I-651] . Reported EC50?
Solution: < 100 nM

Problem: Recorded EC50 for CN(C)CCN(C[C@H](O)[C@@H](O)[C@H](O)[C@H](O)CO)C(=O)CCCSc1ccc(Cl)c(COC2(c3cnccc3-c3ccccc3OC3CC3)CC2)c1 [Compound I-662] , please?
Solution: 126 to 1000 nM

Problem: Reported EC50 for C[C@H](CCCN)c1ccc(Cl)c(CNC2(c3cnccc3-c3ccccc3OC3CC3)CC2)c1 (single isomer, unassigned) [Compound I-251] : what is it?
Solution: < 100 nM

Problem: State the recorded EC50 for this entry: CN(C)S(=O)(=O)c1ccc(Cl)c(COC2(c3cnccc3-c3ccccc3OC3CC3)CC2)c1 [Compound I-393]
Solution: < 100 nM

Problem: For the compound shown here, COC[C@@H](O)CN(C[C@H](O)[C@@H](O)[C@H](O)[C@H](O)CO)C(=O)CCCCc1cc(Cl)c(COC2(c3cnccc3-c3ccccc3OC3CC3)CC2)cc1Cl [Compound I-125] , give the reported EC50.
Solution: < 100 nM

Problem: What EC50 value was documented for this compound, O=C(O)CN(CCN(CC(=O)O)CC(=O)NCCOCCSc1ccc(Cl)c(COC2(c3cnccc3-c3ccccc3OC3CC3)CC2)c1)CC(=O)NCCOCCSc1ccc(Cl)c(COC2(c3cnccc3-c3ccccc3OC3CC3)CC2)c1 [Compound I-612] ?
Solution: 126 to 1000 nM

Problem: What does the data say about its EC50? Entry: O=C(NCCCCCSc1ccc(Cl)c(COC2(c3cnccc3-c3ccccc3OC3CC3)CC2)c1)N[C@H]1CC[C@@H](NC(=O)NC[C@H](O)[C@@H](O)[C@H](O)[C@H](O)CO)CC1 [Compound I-634]
Solution: < 100 nM

Problem: Requested read-out: EC50. Entry: CN(CCCCNC(=O)NC[C@H](O)[C@@H](O)[C@H](O)[C@H](O)CO)S(=O)(=O)c1cc(COC2(c3cnccc3-c3ccccc3OC3CC3)CC2)c(Cl)cc1Cl [Compound I-467]
Solution: < 100 nM

Problem: Would you kindly share the measured EC50 for Clc1cc(Cl)cc(CNC2(c3cnccc3-c3ccccc3OC3CC3)CC2)c1 [Compound I-44] ?
Solution: 1260 to 10000 nM

Problem: Consider the compound CS(=O)(=O)c1ccc(Cl)cc1CNC1(c2cnccc2-c2ccccc2OC2CC2)CC1 [Compound I-43] and give its measured EC50.
Solution: 126 to 1000 nM

Problem: Using the record for CC(CCCC(=O)N1CCN(CC(=O)NC[C@H](O)[C@@H](O)[C@H](O)[C@H](O)CO)CC1)c1ccc(Cl)c(CNC2(c3cnccc3-c3ccccc3OC3CC3)CC2)c1 (stereo partly drawn) [Compound I-321] , report its EC50.
Solution: < 100 nM

Problem: Which EC50 value is on record for CC(CCCC(=O)N(CCS(C)(=O)=O)C[C@@H](O)[C@H](O)[C@@H](O)[C@@H](O)CO)c1ccc(Cl)c(CNC2(c3cnccc3-c3ccccc3OC3CC3)CC2)c1 (stereo partly drawn) [Compound I-346] ?
Solution: < 100 nM
